target: the molecule itself; experiment: two-hybrid; mammalian two-hybrid in HeLa cells: GAL4 DNA-BD (pM) and VP16 DNA-AD (pVP) fusions, pG5luc firefly luciferase normalised to Renilla luciferase, 24 h post-transfection; percent of the wt N-N interaction
Record form. Attribute: M2H % of interaction. Fill in for each entry.

Please give the measured M2H % of interaction for this protein: UUKV-N protein point mutant R251A, mammalian two-hybrid fusions (natural protein, Uukuniemi virus nucleocapsid (N) protein, 254 aa residues; source: HeLa, transfected, mammalian two-hybrid fusions) MAMPENWVRFAIEISDAQWEEEEIREFINLFQYQGFDAAVVLSRIFELAKKADLSRDQMLRDIRALITLHLTRGNKLSSIEKRLSEEGKKEFALLKARYQLVDKAKEAADLTLSRIAIANAGLTCRILPQVVAHTAVTRSRMESLSADYPVCMMHNAFAGLIDETLPEDSIKALVDAHRLYLLEFSRTINVKHRGMEAKEILDANDSALQAGLASSFLTPSQKRAYLLSFKLVDGNGKVNKAVQQAATVLASLI
96%

# iterate: UUKV-N protein point mutant F31A, mammalian two-hybrid fusions (natural protein, Uukuniemi virus nucleocapsid (N) protein, 254 aa residues; Mutation introduced into both the DNA-BD and the DNA-AD fusion; no chain carries both domains; source: HeLa, transfected, mammalian two-hybrid fusions) MAMPENWVRFAIEISDAQWEEEEIREFINLAQYQGFDAAVVLSRIFELAKKADLSRDQMLRDIRALITLHLTRGNKLSSIEKRLSEEGKKEFALLKARYQLVDKAKEAADLTLSRIAIANAGLTCRILPQVVAHTAVTRSRMESLSADYPVCMMHNAFAGLIDETLPEDSIKALVDAHRLYLLEFSRTINVKHRGMEAKEILDANDSALQAGLASSFLTPSQKRAYLLSFKLVDGNGKVNKAVQQAATVLRSLI
23%

# iterate: UUKV-N protein double mutant QQ244,245AA, mammalian two-hybrid fusions (natural protein, Uukuniemi virus nucleocapsid (N) protein, 254 aa residues; source: HeLa, transfected, mammalian two-hybrid fusions) MAMPENWVRFAIEISDAQWEEEEIREFINLFQYQGFDAAVVLSRIFELAKKADLSRDQMLRDIRALITLHLTRGNKLSSIEKRLSEEGKKEFALLKARYQLVDKAKEAADLTLSRIAIANAGLTCRILPQVVAHTAVTRSRMESLSADYPVCMMHNAFAGLIDETLPEDSIKALVDAHRLYLLEFSRTINVKHRGMEAKEILDANDSALQAGLASSFLTPSQKRAYLLSFKLVDGNGKVNKAVAAAATVLRSLI
> 100%

# iterate: UUKV-N protein point mutant F27A, mammalian two-hybrid fusions (natural protein, Uukuniemi virus nucleocapsid (N) protein, 254 aa residues; Mutation introduced into both the DNA-BD and the DNA-AD fusion; no chain carries both domains; source: HeLa, transfected, mammalian two-hybrid fusions) MAMPENWVRFAIEISDAQWEEEEIREAINLFQYQGFDAAVVLSRIFELAKKADLSRDQMLRDIRALITLHLTRGNKLSSIEKRLSEEGKKEFALLKARYQLVDKAKEAADLTLSRIAIANAGLTCRILPQVVAHTAVTRSRMESLSADYPVCMMHNAFAGLIDETLPEDSIKALVDAHRLYLLEFSRTINVKHRGMEAKEILDANDSALQAGLASSFLTPSQKRAYLLSFKLVDGNGKVNKAVQQAATVLRSLI
> 100%

# iterate: UUKV-N protein point mutant W7A, mammalian two-hybrid fusions (natural protein, Uukuniemi virus nucleocapsid (N) protein, 254 aa residues; Mutation introduced into both the DNA-BD and the DNA-AD fusion; no chain carries both domains; source: HeLa, transfected, mammalian two-hybrid fusions) MAMPENAVRFAIEISDAQWEEEEIREFINLFQYQGFDAAVVLSRIFELAKKADLSRDQMLRDIRALITLHLTRGNKLSSIEKRLSEEGKKEFALLKARYQLVDKAKEAADLTLSRIAIANAGLTCRILPQVVAHTAVTRSRMESLSADYPVCMMHNAFAGLIDETLPEDSIKALVDAHRLYLLEFSRTINVKHRGMEAKEILDANDSALQAGLASSFLTPSQKRAYLLSFKLVDGNGKVNKAVQQAATVLRSLI
> 100%

# iterate: UUKV-N protein point mutant W19A, mammalian two-hybrid fusions (natural protein, Uukuniemi virus nucleocapsid (N) protein, 254 aa residues; Mutation introduced into both the DNA-BD and the DNA-AD fusion; no chain carries both domains; source: HeLa, transfected, mammalian two-hybrid fusions) MAMPENWVRFAIEISDAQAEEEEIREFINLFQYQGFDAAVVLSRIFELAKKADLSRDQMLRDIRALITLHLTRGNKLSSIEKRLSEEGKKEFALLKARYQLVDKAKEAADLTLSRIAIANAGLTCRILPQVVAHTAVTRSRMESLSADYPVCMMHNAFAGLIDETLPEDSIKALVDAHRLYLLEFSRTINVKHRGMEAKEILDANDSALQAGLASSFLTPSQKRAYLLSFKLVDGNGKVNKAVQQAATVLRSLI
> 100%
